The reported measurements were obtained from PubChem BioAssay (NCATS).

Measured viability, % of control, listed per entry for reference.
Assay: Viability qHTS for spleen associated tyrosine kinase inhibitor (SYKi) drug resistant MV4-11 cells (AID 1963824); also: nearly all actives have a fitted effect of over 35% in size
Conditions: SYKi-resistant MV4-11 viability, CellTiter-Glo, 72 h; series mostly up to 45 µM
Inconclusive results are not listed. Active and inactive are the calls of the source. Calls follow the shape of the dose curve; as a rule, active = well fitted cell-killing curve with a large enough effect; inconclusive = small, poorly fitted or top-dose-only effect, or effect the other way; inactive = no such curve, though single readings can be large or run the other way.

Sample CC(=O)N[C@H]1[C@H](O[C@H]2CC[C@@]3(C)C(CC[C@]4(C)C3CC=C3[C@@H]5CC(C)(C)CC[C@]5(C(=O)OC5OCC(O)C(O)C5O)CC[C@]34C)C2(C)C)O[C@H](COC2OC(C)C(O)C(OC3OC(C)C(O)C(O)C3O)C2O)[C@@H](O)[C@@H]1O (stereo partly drawn) ; viability, % of control observed: 87% [at 9.25 µM] (inactive)

viability, % of control measured on CN[C@@H](C)[C@H]1[C@H](O)C[C@@]2(C)[C@@H]3CC[C@H]4C(C)(C)[C@@H](NC)CC[C@@]45C[C@@]35CC[C@]12C = 80.2% [at 9.25 µM] (inactive)

The measured viability, % of control associated with O=C(Nc1ccn(Cc2c(F)cccc2C(F)(F)F)n1)c1c(F)cccc1F reads 91.5% [at 9.25 µM] (inactive)

----------
Experiment: Quantitative highthroughput screen to assess conditional lethalithy of SEM cells grown in RPMI1640 with unreated serum (RPMI+s) (AID 1963883); also: nearly all actives have a fitted effect of over 35% in size
Conditions: SEM B-ALL cells, CellTiter-Glo viability, 48 h; series mostly up to 45.8 µM
Inconclusive results are not listed. Active and inactive are the calls of the source. Calls follow the shape of the dose curve; as a rule, active = well fitted cell-killing curve with a large enough effect; inconclusive = small, poorly fitted or top-dose-only effect, or effect the other way; inactive = no such curve, though single readings can be large or run the other way.
Tick one outcome: Y for active, N for inactive

Cc1ccc2nc(NC(=O)CSc3nc4c(c(=O)n3-c3ccccc3)SCC4)sc2c1 :: Y

Field: outcome | Entry: CN1CCc2c(n(Cc3ccc(C(=O)NO)cc3)c3ccccc23)C1
Y

----------
Assay: Quantitative highthroughput screen to assess conditional lethalithy of P12 Ichikawa cells grown in RPMI1640 with dialyzed fetal bovine serum (RPMI+ds) (AID 1963880); also: nearly all actives have a fitted effect of over 35% in size;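 as to viability: 100% = DMSO wells and 0% = empty wells on each plate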
Conditions: ATP luminescence, 48 h; P12-Ichikawa viability; series mostly up to 45.8 µM
Results filed as inconclusive are left out. Active and inactive are the calls of the source. The call rests on the fitted dose curve; in most records, active means well fitted cell-killing curve with a large enough effect; inconclusive means small, poorly fitted or top-dose-only effect; inactive means flat fitted curve, though single readings scatter.
Use one of these outcomes when replying: y = active, n = inactive

These solved cases illustrate the format of a correct answer.
NC(N)=NC(=O)c1nc(Cl)c(N)nc1N :: y
O=C(O)c1cc(=O)c2c(OCC(O)COc3cccc4oc(C(=O)O)cc(=O)c34)cccc2o1 :: n

Tell me the assay call for OCCn1cc(-c2cnc3nnn(Cc4ccc5ncccc5c4)c3n2)cn1 please.
n

Can you look up the reported call for CNS(=O)(=O)Cc1ccc2[nH]cc(CCN(C)C)c2c1 for me?
n

What did this assay record as the result for C=C1[C@H](n2cnc3c(=O)[nH]c(N)nc32)C[C@H](O)[C@H]1CO ?
y

Kindly provide the recorded test outcome for the following molecule: COc1cc(OC2CCN(C)CC2)ccc1Nc1ncc2c(n1)n(C1CCCC1)c(=O)n2C
y

Just curious, what result did Cc1cccc(Nc2nc(N[C@@H]3CCCC[C@H]3N)ncc2C(N)=O)c1 get here?
y

Outcome? Nc1nc(=O)n([C@H]2C[C@H](O)[C@@H](CO)O2)cc1F
y

Short answer needed: outcome of this test for CC[C@@]1([C@@H]2O[C@@H]([C@H]3O[C@@](O)(CO)[C@H](C)C[C@H]3C)C[C@H]2C)CC[C@H]([C@]2(C)CC[C@]3(C[C@H](O)[C@@H](C)[C@@H]([C@@H](C)[C@@H](OC)[C@H](C)C(=O)O)O3)O2)O1 ?
y
